B1: tRNA (parent)
chain: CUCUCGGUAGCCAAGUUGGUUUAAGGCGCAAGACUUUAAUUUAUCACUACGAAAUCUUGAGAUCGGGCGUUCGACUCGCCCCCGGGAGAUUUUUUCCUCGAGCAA

Variants of: B1
Test: nonsense suppression (GFP-seq) (ratio to wild type); higher = more function; SUP4oc tRNA, yeast GFP reporter sort-seq
Variants at the floor of the assay were thinned out.
Entries and their measured nonsense suppression follow.
Provide a numeric answer; units are not to be included.

nonsense suppression reported for this variant CUCUCGGUAGCCAAGAUGGGUUAAGGCGCAAGACUUUAAUUUAUCACUACGAAAUCUUGAGAUCGGGCGUUCGACUCGCCCCCGGGAGAUUUUUUCCUCGAGCAA : 1.11

nonsense suppression reported for this variant CUCUCGGUAGCCAAGUUGGUUUAAGGCUCAAGACUUUAAUUUAUCACUACGAAAUCUUGACAUCGGGCGUUCGACUCGCCCCCGGGAGAUUUUUUCCUCGAGCAA : 0.321

nonsense suppression reported for this variant CUCCCGGUGGCCAAGUUGGUUGAAGGCGCAAGACUUUAAUUUAUCACUACGAAAUCUUGAGAUCGGGCGUUCGACUCGCCCCCGGGAGAUUUUUUCCUCGAGCAA : 0.202

nonsense suppression reported for this variant CUGUCGGUAGCCAAGUUGGUUUAAGGCGCAAGACUUUAAUUUAUCACUACGAAACCUUGAGAUCGGGCGUUCGACUCGCCCCCGGGAGAUUUUUUCCUCGAGCAA : 0.152

nonsense suppression reported for this variant CUCUCGGUCGCCAAGUUGGUUUAAGGCGCAGGACUUUAAUUUAUCACUACGAAAUCUUGAGAUCGGGCGUUCGACUCGCCCCCGGGAGAUUUUUUCCUCGAGCAA : 0.857

nonsense suppression reported for this variant CUCGCGAUAGCCAAGUUGGUUUAAGGCGCAAGACUUUAAUUUAUCACUACGAAAUCUUGAGAUCGGGCGUUCGACUCGCCCCCGGGAGAUUUUUUCCUCGAGCAA : 0.0974

nonsense suppression reported for this variant CUCUCGGUAGCCAAGUUGGUUUAAGGGGCAAGACUUUAAUUUAUCACUACGAAAUCUUGAGAUCGGGCGUUCGACUCGCCCCCGGGGGAUUUUUUCCUCGAGCAA : 0.0273

nonsense suppression reported for this variant CUCUCGGUAGCCAAGUUGGUUUAUGGCGCAAGACUUUAAUUUAUCACUACGAAAUCUUGAGAUCGGGCGUUCGACUCGCCCCCAGGAGAUUUUUUCCUCGAGCAA : 0.0448

nonsense suppression reported for this variant CUCUCGGUAGCCAAGGUGGUUUAAGGCGCAAGACUUUAAUUUAUCACUACGAAAUCUUGAGAUCGGGCGUUCGACCCGCCCCCGGGAGAUUUUUUCCUCGAGCAA : 1.07
